biological target: Human Activated Protein C (h aPC) (Homo sapiens); test: Inhibition of human activated protein C (reference enzyme); conditions: Pefachrome PCa substrate
Sequence (P04070 212-450 limits assumed): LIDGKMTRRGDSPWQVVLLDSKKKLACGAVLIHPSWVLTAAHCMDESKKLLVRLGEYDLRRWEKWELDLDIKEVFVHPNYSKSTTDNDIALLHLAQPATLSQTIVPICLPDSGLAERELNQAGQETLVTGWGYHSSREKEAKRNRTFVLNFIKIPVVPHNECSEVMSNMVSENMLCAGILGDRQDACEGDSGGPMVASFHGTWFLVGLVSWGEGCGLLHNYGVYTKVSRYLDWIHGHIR
Sequence (P04070 43-197 partner limits assumed): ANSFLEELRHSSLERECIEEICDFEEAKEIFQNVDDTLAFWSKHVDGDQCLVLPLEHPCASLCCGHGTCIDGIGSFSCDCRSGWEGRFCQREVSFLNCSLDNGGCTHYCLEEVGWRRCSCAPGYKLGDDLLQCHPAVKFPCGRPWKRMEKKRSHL
Where a name gives a salt, the structure may show the parent alone.
measurement-name: Ki

As a guide, the following entries are already answered.
NCc1ccc(Cl)cc1CNC(=O)[C@@H]1CCCN1C(=O)[C@@H](CCC(=O)N1CCC(N)CC1)NS(=O)(=O)Cc1ccccc1 ... > 100 µM
NCc1ccc(Cl)cc1CNC(=O)[C@@H]1CNCCN1C(=O)[C@@H](CC(=O)N1CCCCC1)NS(=O)(=O)Cc1ccccc1 ... > 30 µM

Turning now to a further compound:
Tested system Human Activated Protein C (h aPC) (Homo sapiens); Ki recorded for NCc1ccc(Cl)cc1CNC(=O)[C@@H]1CCN1C(=O)[C@@H](CC(=O)N1CCNCC1)NS(=O)(=O)Cc1ccccc1 [Compound 2.50, TFA] was > 100 µM

----------
// Ki lookup, one value per entry
Target: UniProt P09871
Sequence (P09871 438-688 limits assumed): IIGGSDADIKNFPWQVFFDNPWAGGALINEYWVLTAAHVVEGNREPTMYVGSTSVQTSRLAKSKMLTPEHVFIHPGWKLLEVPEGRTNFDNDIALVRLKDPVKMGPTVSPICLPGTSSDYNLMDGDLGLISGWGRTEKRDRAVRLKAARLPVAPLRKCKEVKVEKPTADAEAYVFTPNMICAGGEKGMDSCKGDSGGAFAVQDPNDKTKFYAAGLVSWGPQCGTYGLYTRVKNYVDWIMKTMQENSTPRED
Sequence (P09871 16-437 partner limits assumed): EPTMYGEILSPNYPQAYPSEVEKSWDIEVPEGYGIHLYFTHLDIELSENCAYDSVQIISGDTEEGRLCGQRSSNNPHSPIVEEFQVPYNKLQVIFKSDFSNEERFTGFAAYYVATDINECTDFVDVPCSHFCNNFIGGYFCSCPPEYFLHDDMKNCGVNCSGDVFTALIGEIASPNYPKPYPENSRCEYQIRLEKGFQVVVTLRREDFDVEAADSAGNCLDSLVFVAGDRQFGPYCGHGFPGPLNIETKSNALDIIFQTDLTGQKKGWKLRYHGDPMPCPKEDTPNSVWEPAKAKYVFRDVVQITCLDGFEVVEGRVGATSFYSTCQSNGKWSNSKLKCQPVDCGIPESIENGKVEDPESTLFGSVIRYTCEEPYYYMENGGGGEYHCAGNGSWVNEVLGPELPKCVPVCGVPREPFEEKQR
Structures can show the parent of a compound that is named as a salt.

CN(C(=O)C[C@@H](NS(=O)(=O)Cc1ccccc1)C(=O)N1CCC[C@H]1C(=O)NCc1cc(Cl)ccc1CN)C1CCNCC1 ... > 20 µM
CC(=O)N1CCC(N(C)C(=O)CC[C@@H](NS(=O)(=O)Cc2ccccc2)C(=O)N2CCC[C@H]2C(=O)NCc2cc(Cl)ccc2CN)CC1 ... > 20 µM
NCc1ccc(Cl)cc1CNC(=O)[C@@H]1C[C@@H](N)CN1C(=O)[C@@H](CCC(=O)N1CCOCC1)NS(=O)(=O)Cc1ccccc1 ... > 100 µM
NCc1ccc(Cl)cc1CNC(=O)[C@@H]1CCCN1C(=O)[C@@H](CCC(=O)O)NS(=O)(=O)Cc1ccccc1 ... > 50 µM
CN1CCN(C(=O)C[C@@H](NS(=O)(=O)Cc2ccccc2)C(=O)N2CCC[C@H]2C(=O)NCc2cc(Cl)ccc2CN)CC1 ... > 50 µM

Read the next record carefully.
The molecule listed as NCc1ccc(Cl)cc1CNC(=O)[C@@H]1CCCN1C(=O)[C@H](N)CCC(=O)N1CCOCC1 [Compound 2.49, TFA] has a reported Ki of > 100 µM
